System: Escherichia coli TOP10
method-notes: shrunken log2 fold change of peptide-encoding DNA abundance (4.5 h post-induction vs induction); higher = less antimicrobial activity (less host growth inhibition)
condition-info: time post-induction: 4.5 h; library: site-saturation at positions 5, 18, 19, 20
So basically: shrunken log2 fold change at -0.2 or higher? That is 1.0. Lower than -0.2? That is 0.0.

sequence-text: RRIRIRPPRLPRPRPRPVDHPRP
label-value: 0.0

sequence-text: RRIRHRPPRLPRPRPRPNYWPRP
label-value: 0.0

sequence-text: RRIRNRPPRLPRPRPRPDWMPRP
label-value: 1.0

sequence-text: RRIRWRPPRLPRPRPRPHAAPRP
label-value: 1.0

sequence-text: RRIRMRPPRLPRPRPRPNVLPRP
label-value: 1.0

sequence-text: RRIRIRPPRLPRPRPRPRDLPRP
label-value: 1.0

sequence-text: RRIRQRPPRLPRPRPRPLNGPRP
label-value: 1.0

sequence-text: RRIRDRPPRLPRPRPRPNSIPRP
label-value: 0.0

----------
Test system: Escherichia coli TOP10
method-notes: shrunken log2 fold change of peptide-encoding DNA abundance (4.5 h post-induction vs induction); higher = less antimicrobial activity (less host growth inhibition)
condition-info: time post-induction: 4.5 h; library: site-saturation at positions 5, 18, 19, 20

sequence-text: RRIRKRPPRLPRPRPRPMMWPRP
shrunken log2 fold change: 0.373
//
sequence-text: RRIRFRPPRLPRPRPRPMEPPRP
shrunken log2 fold change: 0.039
//
sequence-text: RRIRSRPPRLPRPRPRPQTYPRP
shrunken log2 fold change: -0.16
//
sequence-text: RRIRHRPPRLPRPRPRPQHLPRP
shrunken log2 fold change: -0.358

----------
System: Escherichia coli TOP10
method-notes: shrunken log2 fold change of peptide-encoding DNA abundance (4.5 h post-induction vs induction); higher = less antimicrobial activity (less host growth inhibition)
condition-info: time post-induction: 4.5 h; library: site-saturation at positions 5, 18, 19, 20
# label = 1 if shrunken log2 fold change >= -0.05 else 0

sequence-text: RRIRRRPPRLPRPRPRPNVVPRP
label-value: 1
--
sequence-text: RRIRARPPRLPRPRPRPVYMPRP
label-value: 0
--
sequence-text: RRIRFRPPRLPRPRPRPMYVPRP
label-value: 0
--
sequence-text: RRIRIRPPRLPRPRPRPPTMPRP
label-value: 1
--
sequence-text: RRIRERPPRLPRPRPRPHIHPRP
label-value: 0
--
sequence-text: RRIRRRPPRLPRPRPRPLNGPRP
label-value: 1
--
sequence-text: RRIRTRPPRLPRPRPRPQDRPRP
label-value: 1
--
sequence-text: RRIRGRPPRLPRPRPRPFTDPRP
label-value: 1

----------
Tested on: Escherichia coli TOP10;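 further: peptides expressed intracellularly from a pBAD plasmid library in pooled LB shake-flask culture, induced with 0.3% L-arabinose, DNA abundance read by NGS, three biological replicates, DESeq2 with apeglm shrinkage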
method-notes: shrunken log2 fold change of peptide-encoding DNA abundance (4.5 h post-induction vs induction); higher = less antimicrobial activity (less host growth inhibition)
condition-info: time post-induction: 4.5 h; library: site-saturation at positions 5, 18, 19, 20
Each record here notes measured shrunken log2 fold change.

sequence-text: RRIRHRPPRLPRPRPRPVHIPRP
shrunken log2 fold change: -0.035

sequence-text: RRIRQRPPRLPRPRPRPEVVPRP
shrunken log2 fold change: 0.196

sequence-text: RRIRTRPPRLPRPRPRPPNCPRP
shrunken log2 fold change: 0.0905

sequence-text: RRIRPRPPRLPRPRPRPDFYPRP
shrunken log2 fold change: -0.156

sequence-text: RRIRGRPPRLPRPRPRPFGEPRP
shrunken log2 fold change: 0.793

sequence-text: RRIRNRPPRLPRPRPRPMEHPRP
shrunken log2 fold change: 0.0201

sequence-text: RRIRNRPPRLPRPRPRPELDPRP
shrunken log2 fold change: 0.0611

sequence-text: RRIRHRPPRLPRPRPRPYSRPRP
shrunken log2 fold change: -0.0123

sequence-text: RRIRRRPPRLPRPRPRPQHTPRP
shrunken log2 fold change: 0.191

sequence-text: RRIRFRPPRLPRPRPRPRMGPRP
shrunken log2 fold change: 0.302

sequence-text: RRIRYRPPRLPRPRPRPCKAPRP
shrunken log2 fold change: -0.073

sequence-text: RRIRYRPPRLPRPRPRPDSQPRP
shrunken log2 fold change: -0.429

sequence-text: RRIRCRPPRLPRPRPRPRPNPRP
shrunken log2 fold change: 0.478

sequence-text: RRIRERPPRLPRPRPRPIKVPRP
shrunken log2 fold change: -0.0179

sequence-text: RRIRWRPPRLPRPRPRPQPRPRP
shrunken log2 fold change: 0.462

sequence-text: RRIRWRPPRLPRPRPRPAPSPRP
shrunken log2 fold change: 0.393

sequence-text: RRIRVRPPRLPRPRPRPCYTPRP
shrunken log2 fold change: -0.498

sequence-text: RRIRMRPPRLPRPRPRPQIDPRP
shrunken log2 fold change: 0.141

sequence-text: RRIRARPPRLPRPRPRPKRGPRP
shrunken log2 fold change: 0.565

sequence-text: RRIRTRPPRLPRPRPRPHMVPRP
shrunken log2 fold change: 0.00159

sequence-text: RRIRWRPPRLPRPRPRPPPYPRP
shrunken log2 fold change: 0.0878

sequence-text: RRIRGRPPRLPRPRPRPDSFPRP
shrunken log2 fold change: 0.00128

sequence-text: RRIRIRPPRLPRPRPRPKYFPRP
shrunken log2 fold change: -0.288

sequence-text: RRIRWRPPRLPRPRPRPERMPRP
shrunken log2 fold change: 0.0689

sequence-text: RRIRQRPPRLPRPRPRPFNMPRP
shrunken log2 fold change: 0.00759

sequence-text: RRIRNRPPRLPRPRPRPFFIPRP
shrunken log2 fold change: -0.586

sequence-text: RRIRQRPPRLPRPRPRPKAIPRP
shrunken log2 fold change: 0.0432

sequence-text: RRIRLRPPRLPRPRPRPTKLPRP
shrunken log2 fold change: -0.0137

sequence-text: RRIRCRPPRLPRPRPRPKTIPRP
shrunken log2 fold change: -0.141

sequence-text: RRIRERPPRLPRPRPRPMQMPRP
shrunken log2 fold change: -0.254

sequence-text: RRIRGRPPRLPRPRPRPWTNPRP
shrunken log2 fold change: 0.0419

sequence-text: RRIRVRPPRLPRPRPRPPWCPRP
shrunken log2 fold change: 0.497

sequence-text: RRIRPRPPRLPRPRPRPKWWPRP
shrunken log2 fold change: 0.235

sequence-text: RRIRCRPPRLPRPRPRPLERPRP
shrunken log2 fold change: -0.199

sequence-text: RRIRRRPPRLPRPRPRPDGIPRP
shrunken log2 fold change: 0.282

sequence-text: RRIRFRPPRLPRPRPRPDCTPRP
shrunken log2 fold change: -0.0512

sequence-text: RRIRKRPPRLPRPRPRPIGKPRP
shrunken log2 fold change: 0.0962

sequence-text: RRIRNRPPRLPRPRPRPCDEPRP
shrunken log2 fold change: -0.035

sequence-text: RRIRGRPPRLPRPRPRPMILPRP
shrunken log2 fold change: -0.0452

sequence-text: RRIRPRPPRLPRPRPRPNHQPRP
shrunken log2 fold change: -0.251

sequence-text: RRIRDRPPRLPRPRPRPPHDPRP
shrunken log2 fold change: 2.35

sequence-text: RRIRFRPPRLPRPRPRPTTRPRP
shrunken log2 fold change: 0.177

sequence-text: RRIRIRPPRLPRPRPRPLHEPRP
shrunken log2 fold change: -0.191

sequence-text: RRIRARPPRLPRPRPRPGPPPRP
shrunken log2 fold change: 0.736

sequence-text: RRIRNRPPRLPRPRPRPLFCPRP
shrunken log2 fold change: -0.495

sequence-text: RRIRSRPPRLPRPRPRPMEDPRP
shrunken log2 fold change: 0.189

sequence-text: RRIRMRPPRLPRPRPRPTKWPRP
shrunken log2 fold change: 0.445

sequence-text: RRIRWRPPRLPRPRPRPIPHPRP
shrunken log2 fold change: 0.0496

sequence-text: RRIRARPPRLPRPRPRPFCAPRP
shrunken log2 fold change: 0.394

sequence-text: RRIRCRPPRLPRPRPRPNVDPRP
shrunken log2 fold change: -0.215

sequence-text: RRIRARPPRLPRPRPRPITTPRP
shrunken log2 fold change: 0.1

sequence-text: RRIRYRPPRLPRPRPRPPNPPRP
shrunken log2 fold change: -0.145

sequence-text: RRIRCRPPRLPRPRPRPIRLPRP
shrunken log2 fold change: -0.0542

sequence-text: RRIRMRPPRLPRPRPRPCNMPRP
shrunken log2 fold change: -0.126

sequence-text: RRIRTRPPRLPRPRPRPVHGPRP
shrunken log2 fold change: -0.0733

sequence-text: RRIRPRPPRLPRPRPRPQWCPRP
shrunken log2 fold change: -0.0525

sequence-text: RRIRKRPPRLPRPRPRPHQRPRP
shrunken log2 fold change: -0.0795

sequence-text: RRIRNRPPRLPRPRPRPMSTPRP
shrunken log2 fold change: -0.0292

sequence-text: RRIRLRPPRLPRPRPRPWVSPRP
shrunken log2 fold change: 0.442

sequence-text: RRIRNRPPRLPRPRPRPKLIPRP
shrunken log2 fold change: -0.0332
